Consider the following compounds; for each one, report its pKd.
test system: HLA-DR0901 protein (Homo sapiens, UniProt P01903+P01911, A100R/A103E/D57H/D86V/F55Y/F60I/F76Y/I96F/K127E/L162R/M171V/P40D/Q125H/Q99R/R33Q/R42F/S133A/S66N/T210M/V115G/W38K/Y107V/Y59G/Y89S)
protocol description: Peptide binding competition assay, DR0901
Residues, ends and D or L forms follow the SMILES beside them.
Answers are plain numbers, as −log10 of the molar value.

The examples below pair each entry with its known result.
CC[C@H](C)[C@H](NC(=O)[C@H](CCCNC(=N)N)NC(=O)[C@H](CC(=O)O)NC(=O)[C@H](CC(C)C)NC(=O)[C@H](CO)NC(=O)[C@H](Cc1ccc(O)cc1)NC(=O)[C@H](CC(N)=O)NC(=O)[C@H](Cc1ccccc1)NC(=O)[C@H](CC(N)=O)NC(=O)[C@@H](N)CC(C)C)C(=O)N[C@H](C(=O)N[C@H](C(=O)N[C@@H](CC(=O)O)C(=O)O)C(C)C)[C@@H](C)CC [LNFNYSLDRIIVD] (H-LNFNYSLDRIIVD-OH) :: 7.28
CC[C@H](C)[C@H](NC(=O)[C@H](CCCCN)NC(=O)[C@H](CC(=O)O)NC(=O)[C@H](CC(C)C)NC(=O)[C@H](CO)NC(=O)[C@H](Cc1ccc(O)cc1)NC(=O)[C@H](CC(N)=O)NC(=O)[C@H](Cc1ccccc1)NC(=O)[C@H](CC(N)=O)NC(=O)[C@@H](N)CC(C)C)C(=O)N[C@@H](Cc1c[nH]cn1)C(=O)N[C@H](C(=O)N[C@@H](CC(=O)O)C(=O)O)C(C)C [LNFNYSLDKIHVD] (H-LNFNYSLDKIHVD-OH) :: 6.13

Then this compound:
## Input Fill in the blank: the reported pKd of CC[C@H](C)[C@H](NC(=O)[C@H](CCCCN)NC(=O)[C@H](CCCNC(=N)N)NC(=O)[C@H](CC(C)C)NC(=O)[C@H](CO)NC(=O)[C@H](Cc1ccc(O)cc1)NC(=O)[C@H](CC(N)=O)NC(=O)[C@H](Cc1ccccc1)NC(=O)[C@H](CC(N)=O)NC(=O)[C@@H](N)CC(C)C)C(=O)N[C@H](C(=O)N[C@H](C(=O)N[C@@H](CC(=O)O)C(=O)O)C(C)C)[C@@H](C)CC [LNFNYSLRKIIVD] (H-LNFNYSLRKIIVD-OH) is ____.
## Output 6.89

====

test system: HLA-DR0901 protein (Homo sapiens, UniProt P01903+P01911, A100R/A103E/D57H/D86V/F55Y/F60I/F76Y/I96F/K127E/L162R/M171V/P40D/Q125H/Q99R/R33Q/R42F/S133A/S66N/T210M/V115G/W38K/Y107V/Y59G/Y89S)
protocol description: Peptide binding competition assay, DR0901
Residues, ends and D or L forms follow the SMILES beside them.
assay metric: pKd
Answers are plain numbers, as −log10 of the molar value.

For each listed entry, give its pKd.
1. CC[C@H](C)[C@H](NC(=O)[C@H](CCCCN)NC(=O)[C@H](CC(=O)O)NC(=O)[C@H](CC(C)C)NC(=O)[C@H](CO)NC(=O)[C@H](Cc1ccc(O)cc1)NC(=O)[C@H](CC(N)=O)NC(=O)[C@H](Cc1ccccc1)NC(=O)[C@H](CC(N)=O)NC(=O)[C@@H](N)CC(C)C)C(=O)N[C@@H](CO)C(=O)N[C@H](C(=O)N[C@@H](CC(=O)O)C(=O)O)C(C)C [LNFNYSLDKISVD] (H-LNFNYSLDKISVD-OH)
2. CC[C@H](C)[C@H](NC(=O)[C@H](CCCCN)NC(=O)[C@H](CC(C)C)NC(=O)[C@H](CC(C)C)NC(=O)[C@H](CO)NC(=O)[C@H](Cc1ccc(O)cc1)NC(=O)[C@H](CC(N)=O)NC(=O)[C@H](Cc1ccccc1)NC(=O)[C@H](CC(N)=O)NC(=O)[C@@H](N)CC(C)C)C(=O)N[C@H](C(=O)N[C@H](C(=O)N[C@@H](CC(=O)O)C(=O)O)C(C)C)[C@@H](C)CC [LNFNYSLLKIIVD] (H-LNFNYSLLKIIVD-OH)
3. CC[C@H](C)[C@H](NC(=O)[C@H](CCCCN)NC(=O)[C@H](CC(=O)O)NC(=O)[C@H](CC(C)C)NC(=O)[C@@H]1CCCN1C(=O)[C@H](Cc1ccc(O)cc1)NC(=O)[C@H](CC(N)=O)NC(=O)[C@H](Cc1ccccc1)NC(=O)[C@H](CC(N)=O)NC(=O)[C@@H](N)CC(C)C)C(=O)N[C@H](C(=O)N[C@H](C(=O)N[C@@H](CC(=O)O)C(=O)O)C(C)C)[C@@H](C)CC [LNFNYPLDKIIVD] (H-LNFNYPLDKIIVD-OH)

## Output
[6.11, 7.17, 6.54]
